- test_target: Peroxisome proliferator-activated receptor alpha (Homo sapiens, UniProt Q07869)
- Sequence (Q07869 whole entry): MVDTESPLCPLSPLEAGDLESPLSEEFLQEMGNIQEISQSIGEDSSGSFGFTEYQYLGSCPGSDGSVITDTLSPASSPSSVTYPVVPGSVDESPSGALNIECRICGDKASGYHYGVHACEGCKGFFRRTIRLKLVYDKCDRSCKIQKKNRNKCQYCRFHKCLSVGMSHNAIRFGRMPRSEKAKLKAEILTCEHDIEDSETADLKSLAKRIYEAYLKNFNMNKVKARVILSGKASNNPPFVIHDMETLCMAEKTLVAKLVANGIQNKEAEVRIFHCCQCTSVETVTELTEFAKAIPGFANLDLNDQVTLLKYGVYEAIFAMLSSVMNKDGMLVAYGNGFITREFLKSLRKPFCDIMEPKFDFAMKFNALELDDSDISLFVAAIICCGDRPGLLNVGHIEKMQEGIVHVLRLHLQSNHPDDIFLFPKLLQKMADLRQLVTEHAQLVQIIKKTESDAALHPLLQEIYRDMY
- protocol_text: Effective concentration for human peroxisome proliferator-activated receptor alpha
outcome_measure: EC50 (nM)
Write down the numeric answer in nM and omit the unit.

Solved cases (3 shown):
compound	test_target	unit_spec	measurement
CCOC(Cc1ccc(OC/C=C/C#CC#C/C=C/COc2ccc(C[C@@H](OCC)C(=O)O)cc2)cc1)C(=O)O (single isomer, unassigned)	Peroxisome proliferator-activated receptor alpha (Homo sapiens, UniProt Q07869)	nM	3700
CCOC(Cc1ccc(OC/C=C/c2ccccc2)cc1)C(=O)O (single isomer, unassigned)	Peroxisome proliferator-activated receptor alpha (Homo sapiens, UniProt Q07869)	nM	1600
CCO[C@H](Cc1ccc(OC/C=C(\C)C#Cc2ccc3c(c2)C(=O)c2cc(C#C/C(C)=C/COc4ccc(C[C@@H](OCC)C(=O)O)cc4)ccc2-3)cc1)C(=O)O (stereo in doubt)	Peroxisome proliferator-activated receptor alpha (Homo sapiens, UniProt Q07869)	nM	2300

input: Fill in: EC50 of CCOC(Cc1ccc(OCC/C=C/c2ccccc2)cc1)C(=O)O (single isomer, unassigned) is ___
output: 1100

====

- test_target: Peroxisome proliferator-activated receptor alpha (Homo sapiens)
- Sequence (Q07869 whole entry): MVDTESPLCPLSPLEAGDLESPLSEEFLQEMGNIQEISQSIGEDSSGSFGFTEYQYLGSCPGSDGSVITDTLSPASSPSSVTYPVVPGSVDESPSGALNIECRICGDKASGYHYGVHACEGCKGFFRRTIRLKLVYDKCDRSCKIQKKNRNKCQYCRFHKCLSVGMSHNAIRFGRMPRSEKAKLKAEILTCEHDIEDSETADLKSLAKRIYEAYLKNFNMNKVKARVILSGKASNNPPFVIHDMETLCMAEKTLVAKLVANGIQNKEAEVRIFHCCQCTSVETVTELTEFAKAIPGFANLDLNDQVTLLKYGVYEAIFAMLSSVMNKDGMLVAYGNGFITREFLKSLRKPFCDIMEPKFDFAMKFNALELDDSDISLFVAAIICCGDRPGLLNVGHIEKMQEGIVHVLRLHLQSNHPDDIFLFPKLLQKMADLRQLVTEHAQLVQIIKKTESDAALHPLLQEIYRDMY
- protocol_text: Effective concentration for human peroxisome proliferator-activated receptor alpha
Reported pEC50 values are given for each entry in this list.
Scale: negative log10 of molar concentration, which is what pEC50 denotes.

molecule	measurement
CCOC(Cc1ccc(OC/C=C/C#Cc2ccc(C#C/C=C/COc3ccc(C[C@@H](OCC)C(=O)O)cc3)cc2)cc1)C(=O)O (single isomer, unassigned)	6.15

input: Checklist item: pEC50 tested on Peroxisome proliferator-activated receptor alpha (Homo sapiens), entry CCO[C@@H](Cc1ccc(OC/C=C(/C)C#Cc2ccccc2)cc1)C(=O)O , value?
output: 6.52

input: Checklist item: pEC50 tested on Peroxisome proliferator-activated receptor alpha (Homo sapiens), entry CCOC(Cc1ccc(OC/C=C(\C)C#Cc2ccc(C#C/C(C)=C/COc3ccc(C[C@@H](OCC)C(=O)O)cc3)cc2)cc1)C(=O)O (single isomer, unassigned) , value?
output: 5.92

input: Checklist item: pEC50 tested on Peroxisome proliferator-activated receptor alpha (Homo sapiens), entry CCO[C@@H](Cc1ccc(OCc2ccc(COc3ccc(C[C@H](OCC)C(=O)O)cc3)cc2)cc1)C(=O)O , value?
output: 4.82

input: Checklist item: pEC50 tested on Peroxisome proliferator-activated receptor alpha (Homo sapiens), entry CCO[C@H](Cc1ccc(OC/C=C(/C)C#Cc2ccc(-c3ccc(C#C/C(C)=C/COc4ccc(C[C@@H](OCC)C(=O)O)cc4)cc3)cc2)cc1)C(=O)O , value?
output: 5.74

input: Checklist item: pEC50 tested on Peroxisome proliferator-activated receptor alpha (Homo sapiens), entry CCOC(Cc1ccc(OCC#CCOc2ccc(C[C@@H](OCC)C(=O)O)cc2)cc1)C(=O)O (single isomer, unassigned) , value?
output: 5.02

input: Checklist item: pEC50 tested on Peroxisome proliferator-activated receptor alpha (Homo sapiens), entry CCO[C@H](Cc1ccc(OC/C=C(\C)c2ccc(-c3ccc(/C(C)=C/COc4ccc(C[C@@H](OCC)C(=O)O)cc4)cc3)cc2)cc1)C(=O)O , value?
output: 5.17

input: Checklist item: pEC50 tested on Peroxisome proliferator-activated receptor alpha (Homo sapiens), entry CCO[C@H](Cc1ccc(OC/C=C/C#Cc2ccccc2)cc1)C(=O)O , value?
output: 7.15

Reference source: ChEMBL document CHEMBL1142023
